target: TMEM16A (Mus musculus); construct: mouse TMEM16A isoform (ac), expressed in HEK-293T cells; assay: inside-out patch clamp, excised patches from HEK-293T cells, +[…] mV, […] Ca2+ (current activation); details: read-out: K a
Sequence (Q8BHY3 whole entry, canonical isoform): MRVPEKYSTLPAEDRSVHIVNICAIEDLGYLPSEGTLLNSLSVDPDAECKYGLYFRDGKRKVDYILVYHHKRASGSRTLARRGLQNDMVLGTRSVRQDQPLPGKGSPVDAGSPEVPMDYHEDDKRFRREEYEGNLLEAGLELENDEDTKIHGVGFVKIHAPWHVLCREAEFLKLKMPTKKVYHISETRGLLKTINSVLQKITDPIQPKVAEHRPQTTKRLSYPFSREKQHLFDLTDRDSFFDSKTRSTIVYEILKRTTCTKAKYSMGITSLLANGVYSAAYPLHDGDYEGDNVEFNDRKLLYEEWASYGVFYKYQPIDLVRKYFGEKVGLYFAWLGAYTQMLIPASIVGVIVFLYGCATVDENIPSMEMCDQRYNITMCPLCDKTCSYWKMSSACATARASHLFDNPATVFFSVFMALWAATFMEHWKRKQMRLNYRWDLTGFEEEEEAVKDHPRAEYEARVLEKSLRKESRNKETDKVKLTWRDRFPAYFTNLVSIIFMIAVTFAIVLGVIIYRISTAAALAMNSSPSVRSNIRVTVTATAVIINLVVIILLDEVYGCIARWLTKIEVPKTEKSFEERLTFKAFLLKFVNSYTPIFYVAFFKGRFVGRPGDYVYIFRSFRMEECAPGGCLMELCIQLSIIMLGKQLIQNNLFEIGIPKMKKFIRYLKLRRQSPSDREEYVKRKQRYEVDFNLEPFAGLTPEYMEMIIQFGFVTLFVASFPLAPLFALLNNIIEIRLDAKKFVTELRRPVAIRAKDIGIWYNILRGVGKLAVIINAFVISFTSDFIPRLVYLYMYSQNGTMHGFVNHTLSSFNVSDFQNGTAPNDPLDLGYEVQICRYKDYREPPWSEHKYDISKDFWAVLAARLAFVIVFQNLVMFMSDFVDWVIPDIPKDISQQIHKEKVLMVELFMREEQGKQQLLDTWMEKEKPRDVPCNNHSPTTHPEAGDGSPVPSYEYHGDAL
Result Type: pEC50
Interpret pEC50 as the negative base-10 log of the concentration measured in mol/L.

Quick check: pEC50 of CCCCCCCC(=O)OC[C@H](COP(=O)(O)O[C@@H]1[C@H](O)[C@H](O)[C@@H](OP(=O)(O)O)[C@H](OP(=O)(O)O)[C@H]1O)OC(=O)CCCCCCC [diC8‐PIP2] ?
4.28
